- Test system: MV-4-11 cells
- assayProtocol: Inhibition of tumor cell proliferation (CellTiter-Glo)
- Format: cell-based
- conditionNotes: Homo sapiens, MV4-11; MV-4-11 cells, 72 h, CellTiter-Glo; read-out: IC50 of inhibitory activity of tumor cell proliferation
Documented IC50 across a set of molecules

[
  {
    "molecule": "O=C(C#Cc1coc2ccccc12)NCc1ccc2c(c1)CN(C1CCC(=O)NC1=O)C2=O (stereo not shown) [Compound 99]",
    "recordedResult": "< 1 nM"
  },
  {
    "molecule": "CC(=O)OCOC(=O)c1ccccc1C#CC(=O)NCc1ccc2c(c1)CN(C1CCC(=O)NC1=O)C2=O (stereo not shown) [Compound 96]",
    "recordedResult": "> 100 nM"
  },
  {
    "molecule": "O=C(C#CN1CCCC1)NCc1ccc2c(c1)CN(C1CCC(=O)NC1=O)C2=O (stereo not shown) [Compound 126]",
    "recordedResult": "> 100 nM"
  }
]

Q: Let me know recorded IC50 for O=C(C#Cc1ccccc1C(=O)O)NCc1ccc2c(c1)CN(C1CCC(=O)NC1=O)C2=O (stereo not shown) [Compound 75] , thanks.
A: > 100 nM

Where these numbers come from: patent US20240368113A1
